Value source: patent US9296725B2

target: JAK2 (Homo sapiens, UniProt O60674); construct: endogenous in cells; test: Kinobeads assay, JAK2 (competition binding in mixed Molt4/Ramos cell lysate, dot blot detection); settings: read-out: JAK2 Band (Kinobeads assay potency, IC50)
Sequence (O60674 whole entry): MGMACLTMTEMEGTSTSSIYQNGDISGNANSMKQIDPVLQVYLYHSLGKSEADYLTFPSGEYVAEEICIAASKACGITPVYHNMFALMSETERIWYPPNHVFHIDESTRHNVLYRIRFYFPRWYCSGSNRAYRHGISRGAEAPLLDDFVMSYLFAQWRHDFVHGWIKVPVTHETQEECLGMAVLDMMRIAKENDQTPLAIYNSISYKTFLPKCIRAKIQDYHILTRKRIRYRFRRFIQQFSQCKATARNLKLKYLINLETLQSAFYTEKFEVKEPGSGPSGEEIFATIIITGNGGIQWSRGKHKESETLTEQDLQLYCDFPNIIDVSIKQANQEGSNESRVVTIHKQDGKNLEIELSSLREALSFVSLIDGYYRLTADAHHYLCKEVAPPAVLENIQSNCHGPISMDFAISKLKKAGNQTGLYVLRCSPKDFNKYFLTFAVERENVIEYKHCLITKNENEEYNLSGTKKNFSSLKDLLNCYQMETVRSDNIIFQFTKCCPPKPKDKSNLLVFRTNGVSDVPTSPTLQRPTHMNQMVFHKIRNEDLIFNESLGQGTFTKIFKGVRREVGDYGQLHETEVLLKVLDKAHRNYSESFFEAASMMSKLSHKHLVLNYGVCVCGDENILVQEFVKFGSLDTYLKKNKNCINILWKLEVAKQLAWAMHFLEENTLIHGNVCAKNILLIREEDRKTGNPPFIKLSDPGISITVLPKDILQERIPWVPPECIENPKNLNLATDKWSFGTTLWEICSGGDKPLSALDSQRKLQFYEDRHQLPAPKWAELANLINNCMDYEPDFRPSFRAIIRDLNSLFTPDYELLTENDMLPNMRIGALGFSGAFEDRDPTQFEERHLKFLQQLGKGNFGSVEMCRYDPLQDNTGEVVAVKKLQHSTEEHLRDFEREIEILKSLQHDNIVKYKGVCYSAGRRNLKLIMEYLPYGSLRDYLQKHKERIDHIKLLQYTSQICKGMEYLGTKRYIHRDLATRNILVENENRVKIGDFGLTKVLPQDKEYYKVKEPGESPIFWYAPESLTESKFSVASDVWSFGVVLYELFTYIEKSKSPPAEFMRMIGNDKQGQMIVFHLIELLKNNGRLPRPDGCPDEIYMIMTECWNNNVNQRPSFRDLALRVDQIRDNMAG
pIC50: −log10 of the molar value.
outcome_measure: pIC50

Request: Determine its reported pIC50: COc1ccc(F)c(CNc2nc(Nc3cnn(CC(N)=O)c3)ncc2F)c1F [Example I-384]
Response: 5.00 to 6.00

Request: Determine its reported pIC50: OCCn1cc(Nc2ncc(F)c(NCc3cccc(F)c3)n2)cn1 [Example I-210]
Response: 6.00 to 7.00

Request: Determine its reported pIC50: O=C(Cn1cc(Nc2ncc(F)c(NCc3c(F)cc(F)cc3F)n2)cn1)NC1CCC1 [Example I-308]
Response: < 5.00

Request: Determine its reported pIC50: N#C[C@@H]1CCN(C(=O)Cn2cc(Nc3ncc(Cl)c(NCc4ccccc4)n3)cn2)C1 [Example I-271]
Response: 6.00 to 7.00

Turning to the following compound.
Request: Determine its reported pIC50: CS(=O)(=O)c1ccccc1CNc1nc(Nc2cnn(CCO)c2)ncc1Cl [Example I-266]
Response: 5.00 to 6.00

---

biological target: JAK2 (Homo sapiens, UniProt O60674); construct: endogenous in cells; host or cells: Molt4 (ATCC CRL-1582) and Ramos (ATCC CRL-1596), mixed lysate 1:2; assay: Kinobeads assay, JAK2 (competition binding in mixed Molt4/Ramos cell lysate, dot blot detection); conditions: read-out: JAK2 Band (Kinobeads assay potency, IC50)
pIC50: −log10 of the molar value.
outcome_measure: pIC50

Reference set (8 entries):
Request: Determine its reported pIC50: `N#Cc1cccc(CNc2nc(Nc3cnn(CCO)c3)ncc2F)c1`
Response: 5.00 to 6.00

Request: Determine its reported pIC50: `OCCn1cc(Nc2ncc(Cl)c(NCc3ncccc3F)n2)cn1`
Response: 5.00 to 6.00

Request: Determine its reported pIC50: `C[C@H](CO)NC(=O)Cn1cc(Nc2nccc(NCc3c(F)cncc3F)n2)cn1`
Response: < 5.00

Request: Determine its reported pIC50: `NS(=O)(=O)c1ccc(CNc2nc(Nc3cnn(CC(=O)N4CCOCC4)c3)ncc2F)cc1`
Response: < 5.00

Request: Determine its reported pIC50: `NS(=O)(=O)c1ccc(F)c(CNc2nc(Nc3cnn(CCO)c3)ncc2Cl)c1`
Response: 5.00 to 6.00

Request: Determine its reported pIC50: `OCCn1cc(Nc2ncc(Cl)c(NCc3cc(OC(F)F)ccc3F)n2)cn1`
Response: 6.00 to 7.00

Request: Determine its reported pIC50: `CNC(=O)Cn1cc(Nc2ncc(Cl)c(NCc3cccc(F)c3)n2)cn1`
Response: 6.00 to 7.00

Request: Determine its reported pIC50: `COc1ccc(F)c(CNc2nc(Nc3cnn(CC(=O)OC(C)C)c3)ncc2F)c1F`
Response: < 5.00

---
Request: Determine its reported pIC50: `C[C@H](CO)NC(=O)Cn1cc(Nc2ncc(F)c(NCc3c(F)cc(F)cc3F)n2)cn1`
Response: 5.00 to 6.00

Request: Determine its reported pIC50: `Cn1cc(Nc2ncc(F)c(NCc3c(F)c(F)cc(F)c3F)n2)cn1`
Response: 5.00 to 6.00

Request: Determine its reported pIC50: `Cc1cnc(Nc2cnn(CC(=O)N3CCOCC3)c2)nc1NCc1c(F)cc(S(N)(=O)=O)cc1F`
Response: 6.00 to 7.00

Request: Determine its reported pIC50: `CC(C)NC(=O)Cn1cc(Nc2nccc(NCc3c(F)ccc(F)c3F)n2)cn1`
Response: 5.00 to 6.00

---

biological target: JAK2 (Homo sapiens, UniProt O60674); construct: endogenous in cells; assay: Kinobeads assay, JAK2 (competition binding in mixed Molt4/Ramos cell lysate, dot blot detection); conditions: read-out: JAK2 Band (Kinobeads assay potency, IC50)
pIC50: −log10 of the molar value.
Listed compounds paired with reported pIC50

Reference set (10 entries):
Request: Determine its reported pIC50: C[C@H]1COCCN1C(=O)Cn1cc(Nc2ncc(F)c(NCc3c(F)cc(F)cc3F)n2)cn1 [Example I-73]
Response: 5.00 to 6.00

Request: Determine its reported pIC50: CN(C)C(=O)Cn1cc(Nc2ncc(Cl)c(NCc3ccccc3S(C)(=O)=O)n2)cn1 [Example I-452]
Response: 6.00 to 7.00

Request: Determine its reported pIC50: Cc1cnc(Nc2cnn(CC(=O)N[C@H](C)CO)c2)nc1NCc1c(F)cc(F)cc1F [Example I-35]
Response: 6.00 to 7.00

Request: Determine its reported pIC50: Cn1cc(Nc2nccc(NCc3c(Cl)ccc(F)c3F)n2)cn1 [Example I-68]
Response: 6.00 to 7.00

Request: Determine its reported pIC50: COc1c(F)cc(F)cc1CNc1nc(Nc2cnn(CC(=O)NC3CC3)c2)ncc1C [Example I-345]
Response: 6.00 to 7.00

Request: Determine its reported pIC50: CS(=O)(=O)c1ccc(F)c(CNc2nc(Nc3cnn(CC(N)=O)c3)ncc2Cl)c1 [Example I-100]
Response: 6.00 to 7.00

Request: Determine its reported pIC50: OCCn1cc(Nc2ncc(Cl)c(NCc3ccccc3F)n2)cn1 [Example I-174]
Response: 6.00 to 7.00

Request: Determine its reported pIC50: CS(=O)(=O)c1cccc(CNc2nc(Nc3cnn(CC(F)F)c3)ncc2Cl)c1 [Example I-467]
Response: 5.00 to 6.00

Request: Determine its reported pIC50: Cc1cnc(Nc2cnn(CC(=O)N3CCOC(C)(C)C3)c2)nc1NCc1c(F)cc(F)cc1F [Example I-34]
Response: 5.00 to 6.00

Request: Determine its reported pIC50: COc1ccc(F)c(CNc2nc(Nc3cnn(CC(=O)N(C)C)c3)ncc2C)c1F [Example I-20]
Response: 6.00 to 7.00

---
Request: Determine its reported pIC50: [2H]C([2H])(O)C([2H])([2H])n1cc(Nc2ncc(Cl)c(NCc3cccc(F)c3)n2)cn1 [Example I-232]
Response: 5.00 to 6.00

Request: Determine its reported pIC50: N#CCOc1cccc(CNc2nc(Nc3cnn(CC(=O)N4CCOCC4)c3)ncc2Cl)c1 [Example I-366]
Response: 5.00 to 6.00
